// provenance: patent US20100144025A1

// reported -log Kd per item
- Assay target: HLA-A2 molecule (the product of HLA-A*0206 gene) (human)
Property label: -log Kd

Binder: LVISGLFPV (modifications not checked) [SEQ ID NO 41]
Property label: -log Kd
Obs value: 6.61 -log Kd
//
Binder: YVVIAILTV (modifications not checked) [SEQ ID NO 47]
Property label: -log Kd
Obs value: 5.86 -log Kd
//
Binder: RTLRVLNLV (modifications not checked) [SEQ ID NO 49]
Property label: -log Kd
Obs value: 5.97 -log Kd
//
Binder: HVLGRLITV (modifications not checked) [SEQ ID NO 45]
Property label: -log Kd
Obs value: 6.25 -log Kd
//
Binder: IVLEHGSCV (modifications not checked) [SEQ ID NO 27]
Property label: -log Kd
Obs value: 6.02 -log Kd
//
Binder: QILEENVEV (modifications not checked) [SEQ ID NO 50]
Property label: -log Kd
Obs value: 5.61 -log Kd
//
Binder: SVIEKMEAL (modifications not checked) [SEQ ID NO 48]
Property label: -log Kd
Obs value: 6.37 -log Kd
//
Binder: LALLAAFKV (modifications not checked) [SEQ ID NO 43]
Property label: -log Kd
Obs value: 6.47 -log Kd
